TARGET: AARS2 (Homo sapiens, UniProt Q5JTZ9, R199C)
Construct: full-length human AARS2 985 aa
Sequence (Q5JTZ9 11-985 R199C): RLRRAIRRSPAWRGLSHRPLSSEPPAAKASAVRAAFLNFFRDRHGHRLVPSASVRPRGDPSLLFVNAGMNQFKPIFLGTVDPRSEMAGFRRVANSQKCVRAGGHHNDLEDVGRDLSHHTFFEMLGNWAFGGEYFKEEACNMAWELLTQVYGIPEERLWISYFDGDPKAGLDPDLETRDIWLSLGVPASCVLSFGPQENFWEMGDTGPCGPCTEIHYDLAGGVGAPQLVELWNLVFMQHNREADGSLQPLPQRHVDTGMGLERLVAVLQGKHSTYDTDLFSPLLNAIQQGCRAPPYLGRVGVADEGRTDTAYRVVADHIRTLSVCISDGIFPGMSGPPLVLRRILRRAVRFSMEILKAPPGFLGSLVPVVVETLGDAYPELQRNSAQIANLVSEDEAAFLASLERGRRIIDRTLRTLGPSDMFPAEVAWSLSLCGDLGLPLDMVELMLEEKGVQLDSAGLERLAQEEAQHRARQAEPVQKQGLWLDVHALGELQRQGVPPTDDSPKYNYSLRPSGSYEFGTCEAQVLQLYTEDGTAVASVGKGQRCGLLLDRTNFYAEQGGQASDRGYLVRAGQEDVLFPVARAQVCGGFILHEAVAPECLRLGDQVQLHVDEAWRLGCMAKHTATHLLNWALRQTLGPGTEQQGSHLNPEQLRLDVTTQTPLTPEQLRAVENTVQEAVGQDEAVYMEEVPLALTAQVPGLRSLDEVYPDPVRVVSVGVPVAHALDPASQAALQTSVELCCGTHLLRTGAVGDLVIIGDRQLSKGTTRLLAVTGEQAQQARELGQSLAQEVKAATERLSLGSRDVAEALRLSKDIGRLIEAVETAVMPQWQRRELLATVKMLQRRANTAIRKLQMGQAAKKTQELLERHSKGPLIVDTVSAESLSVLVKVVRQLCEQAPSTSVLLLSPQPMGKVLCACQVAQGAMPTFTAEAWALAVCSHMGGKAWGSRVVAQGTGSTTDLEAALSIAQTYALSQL
TEST SUMMARY: isothermal titration calorimetry (Microcal)
CONDITIONS USED: read-out: K
pKd: −log10 of the molar value.
READOUT: pKd

Short answer on AARS2 (Homo sapiens, UniProt Q5JTZ9, R199C) for C[C@H](O)C(=O)O [lactate] , pKd: 5.43 to 5.59

* * *

TARGET: AARS2 (Homo sapiens)
Construct: full-length human AARS2 985 aa
TEST SUMMARY: isothermal titration calorimetry (Microcal)
Type: binding
CONDITIONS USED: read-out: K
pKd: −log10 of the molar value.
READOUT: pKd

// recorded pKd for C[C@H](O)C(=O)O [lactate] : 4.75 to 5.08
